System: Rhodotorula mucilaginosa
assay.notes: Antimicrobial activity against Rhodotorula mucilaginosa by broth microdilution method
Format: functional
*1 amine or outer side, *2 acyl side, *3 side chain or, on linkers, in order; H or OH if unused. Where a SMILES comes first, the peptide text is derived from it. Bridges are numbered along the chain shown (N, C = ends). [ ]: non-standard residue; d: D form. The star is where a group is joined. pTerphenylCO(4''-OnC5H11) = CCCCCOc1ccc(-c2ccc(-c3ccc(C(=O)*)cc3)cc2)cc1; Orn(4R-OH,5R-OH) = O=C([C@H](C[C@@H](O)[C@@H](O)N[*:3])N[*:1])[*:2]; hTyr(3S-OH,4S-OH) = N[C@H](C(=O)O)[C@H](O)[C@@H](O)c1ccc(O)cc1; Pro(3S-OH,4S-Me) = C[C@H]1CN[C@H](C(=O)O)[C@H]1O; Hyp = O=C(O)[C@@H]1C[C@@H](O)CN1
value.type: MIC50

Query: Endpoint output: MIC50 of CCCCCOc1ccc(-c2ccc(-c3ccc(C(=O)N[C@H]4C[C@@H](O)[C@@H](O)NC(=O)[C@@H]5[C@@H](O)[C@@H](C)CN5C(=O)[C@H]([C@@H](C)O)NC(=O)[C@H]([C@H](O)[C@@H](O)c5ccc(O)cc5)NC(=O)[C@@H]5C[C@@H](O)CN5C(=O)[C@H]([C@@H](C)O)NC4=O)cc3)cc2)cc1 [ANIDULAFUNGIN] ({pTerphenylCO(4''-OnC5H11)}-[Orn(4R-OH,5R-OH)]T[Hyp][hTyr(3S-OH,4S-OH)]T[Pro(3S-OH,4S-Me)]; lactam 1-C) . Value?
Reply: > 16 µg/mL

Source: ChEMBL document CHEMBL1649165
